test: qHTS assay to test for compound auto fluorescence at 460 nm (blue) in HEK293 cells (AID 720678); note: % is set by controls: 0 for no effect and ±100 for the full control effect
experimentalContext: blue autofluorescence 405/460 nm; series mostly up to 91.3 µM
The source made the active and inactive calls. Calls come from the whole dose curve; as a rule, active = well fitted curve in the direction sought with a large enough effect in the repeat runs; inconclusive = weak or mixed curves; inactive = flat fitted curve, though single readings scatter.
measurementKind: fluorescence, % of triamterene

Item C[C@H]1[C@H]2CC[C@H]3[C@@H]4CC=C5C[C@@H](N(C)C)CC[C@]5(C)[C@H]4CC[C@]23CN1C : provide fluorescence, % of triamterene
inactive

For the compound CCN(CC)CCNC(=O)c1c(C)[nH]c(/C=C2\C(=O)Nc3ccc(F)cc32)c1C , give its measured fluorescence, % of triamterene value.
inactive

Consider the compound CCCCCCCCCCCCc1ccc(O)cc1 . State its measured fluorescence, % of triamterene.
inactive

Dear colleague, please send me the reported fluorescence, % of triamterene for CCN1/C(=C/C=C/c2sc3ccccc3[n+]2CC)Sc2ccccc21 when you can.
inactive

Could you please provide reported fluorescence, % of triamterene for S=c1[nH]c2ccccc2s1 ? Thanks!
inactive

Next:
Indicate its recorded fluorescence, % of triamterene; the compound in question is CCCCCCCCCCCCCCCC[N+](C)(C)CCN(Cc1ccc(OC)cc1)c1ncccn1
0.0413% [at 18.6 µM] (inactive)

Recall and state the measured fluorescence, % of triamterene for Cc1onc(-c2c(Cl)cccc2Cl)c1C(=O)N[C@@H]1C(=O)N2[C@@H]1SC(C)(C)[C@@H]2C(=O)O .
inactive

Please give the documented fluorescence, % of triamterene of CC[C@H]1O[C@]2(CC[C@@H]1C)C[C@@H]1C[C@@H](C/C=C(\C)C[C@@H](C)/C=C/C=C3\CO[C@@H]4[C@H](O)C(C)=C[C@@H](C(=O)O1)[C@]34O)O2
inactive

Please list fluorescence, % of triamterene recorded for the compound Cc1cc(O)c(Cl)c(C)c1Cl
inactive

Tell us which fluorescence, % of triamterene value is on record for Cc1ccc(O)c2ncccc12
inactive

Supply fluorescence, % of triamterene value. Item: CN(C)c1ccc(SC#N)cc1
inactive

Annotate the compound Cc1cc(O)c2ccccc2c1O with its measured fluorescence, % of triamterene.
inactive
